# Test system: Staphylococcus epidermidis
# assay_text: Antibacterial activity against methicillin-sensitive Staphylococcus epidermidis isolate cpu0315 after 18 to 20 hrs by agar dilution method
# Type: functional
quantity_measured: MIC (µg/mL)
Write the value in µg/mL as a bare number.

For orientation, consider the following solved cases.
{"smiles_structure": "C=C[C@]1(C)C[C@@H](OC(=O)CSCCN(CC)CC)[C@]2(C)[C@H](C)CC[C@]3(CCC(=O)[C@H]32)[C@@H](C)[C@@H]1O", "MIC (µg/mL)": 0.0625}
{"smiles_structure": "C=C[C@]1(C)C[C@@H](OC(=O)CSCc2csc(NC(=O)CN3CCCC3)n2)[C@]2(C)[C@H](C)CC[C@]3(CCC(=O)[C@H]32)[C@@H](C)[C@@H]1O", "MIC (µg/mL)": 2}
{"smiles_structure": "C=C[C@]1(C)C[C@@H](OC(=O)CSCc2csc(NC(=O)CN(CCCC)CCCC)n2)[C@]2(C)[C@H](C)CC[C@]3(CCC(=O)[C@H]32)[C@@H](C)[C@@H]1O", "MIC (µg/mL)": 8}
{"smiles_structure": "C=C[C@]1(C)C[C@@H](OC(=O)CSCc2csc(NC(=O)CN(CCC)CCC)n2)[C@]2(C)[C@H](C)CC[C@]3(CCC(=O)[C@H]32)[C@@H](C)[C@@H]1O", "MIC (µg/mL)": 8}

Next compound, please.
Q: For the compound C=C[C@]1(C)C[C@@H](OC(=O)CSCc2csc(NC(=O)CN(CC)CC)n2)[C@]2(C)[C@H](C)CC[C@]3(CCC(=O)[C@H]32)[C@@H](C)[C@@H]1O , give its reported MIC.
Ans: 0.25
